Give measured MIC for each item. Keep answers brief.
tested on: Pseudomonas aeruginosa; experiment: Antimicrobial activity against Pseudomonas aeruginosa isolate 13167 from fibrosis patient by Etest; assay type: functional

>>> result_value("NCC[C@H](O)C(=O)N[C@@H]1C[C@H](N)[C@@H](O[C@H]2O[C@H](CN)[C@@H](O)[C@H](O)[C@H]2O)[C@H](O)[C@H]1O[C@H]1O[C@H](CO)[C@@H](O)[C@H](N)[C@H]1O")
"64 µg/mL"
>>> result_value("CO/N=C(\\C(=O)N[C@@H]1C(=O)N2C(C(=O)O)=C(COC(C)=O)CS[C@H]12)c1csc(N)n1")
"> 256 µg/mL"
>>> result_value("CC1(C)S[C@@H]2[C@H](NC(=O)C(C(=O)O)c3ccccc3)C(=O)N2[C@H]1C(=O)O (stereo partly drawn)")
"> 512 µg/mL"
>>> result_value("C[C@@H](O)[C@H]1C(=O)N2C(C(=O)O)=C(S[C@@H]3CN[C@H](C(=O)N(C)C)C3)[C@H](C)[C@H]12")
"4 µg/mL"

Need MIC for each of these compounds.
1. C[C@H]1[C@H](NC(=O)/C(=N\OC(C)(C)C(=O)O)c2csc(N)n2)C(=O)N1S(=O)(=O)O
2. C[C@@H](O)[C@H]1C(=O)N2C(C(=O)O)=C(SCCNC=N)C[C@H]12 [IMIPENEM ANHYDROUS]
3. CC(C)(O/N=C(\C(=O)N[C@@H]1C(=O)N2C(C(=O)[O-])=C(C[n+]3ccccc3)CS[C@H]12)c1csc(N)n1)C(=O)O
4. NC[C@H]1O[C@H](O[C@H]2[C@H](O)[C@@H](O[C@H]3O[C@H](CO)[C@@H](O)[C@H](N)[C@H]3O)[C@H](N)C[C@@H]2N)[C@H](N)C[C@@H]1O

a:
1. 16 µg/mL
2. 4 µg/mL
3. 64 µg/mL
4. 4 µg/mL
